test-system: Neuronal acetylcholine receptor
test: Evaluated for its binding affinity towards Nicotinic acetylcholine receptor in rat brain homogenate
Examples of compounds with documented Ki follow.
readout-label: Ki (µM)

- CN1[C@@H](CC(=O)c2ccccc2)CCC[C@H]1C[C@H](Cl)c1ccccc1: 0.005
- CN1[C@@H](CC(=O)c2ccccc2)CCC[C@H]1CC(=O)c1ccccc1: 7.8
- CN1[C@H](CCc2ccccc2)CCC[C@@H]1CC(=O)c1ccccc1: 0.11

---

test-system: Neuronal acetylcholine receptor
test: Evaluated for its binding affinity towards Nicotinic acetylcholine receptor in rat brain homogenate
pKi: −log10 of the molar value.
# pKi listing for each entry below
readout-label: pKi

• C[N+]1(C)[C@@H](CC(=O)c2ccccc2)CCC[C@H]1C[C@H](O)c1ccccc1 = 5.69
• CN1[C@@H](CC(=O)c2ccccc2)CCC[C@H]1/C=C/c1ccccc1 = 5.96
• CN1[C@@H](CCc2ccccc2)CCC[C@H]1C[C@H](O)c1ccccc1 = 6.63
• CN1CCCCC1CCc1ccccc1 (stereo not drawn) = 5.60
• CN1[C@H](CCc2ccccc2)CCC[C@@H]1C[C@@H](O)c1ccccc1 [8R-hydroxylobelane] = 6.47
• CN1[C@@H](C[C@@H](O)c2ccccc2)CCC[C@H]1C[C@H](O)c1ccccc1 = 6.52

From: ChEMBL document CHEMBL1132385
